Biological target: HLA-B*08:01 (human)
Test: UV peptide exchange + HLA class I ELISA
Conditions: remark: other sources report otherwise
assay_readout: exchange rate vs Pos peptide (%)
Could you give me the number in %? Just the number is fine.

Example binders with recorded exchange rate vs Pos peptide:
CYLGRQKRF (here or on the partner: biotinylated heavy chain) [P61 9-mer peptide (FOXA1.p.R261G)]: 3.6
FLFLLLPLS (here or on the partner: biotinylated heavy chain) [P87 9-mer peptide (AR-Intron splice variant)]: 3.1

Prompt line: Item YLRRQKRLK (here or on the partner: biotinylated heavy chain) [P60 9-mer peptide (FOXA1.p.F266L)] has what recorded exchange rate vs Pos peptide?
Response line: 10.2

Prompt line: Which value of exchange rate vs Pos peptide has been reported for RAKCKFSIL (here or on the partner: biotinylated heavy chain) [P56 9-mer peptide (SPOP(F102C))] in the records?
Response line: 38

Prompt line: Could you share which exchange rate vs Pos peptide value was measured for IVWWCPMSR (here or on the partner: biotinylated heavy chain) [P98 9-mer peptide (TP53 (R213D) frameshift)] ?
Response line: 2.4

Prompt line: Record request: exchange rate vs Pos peptide value, item QLIAMDSAI (here or on the partner: biotinylated heavy chain) [P22 9-mer peptide (SLC45A3-ELK4 fusion)]
Response line: 3.9

Prompt line: Quick check: exchange rate vs Pos peptide of IPVLTRWPL (here or on the partner: biotinylated heavy chain) [P19 9-mer peptide (TMEM222-LOC644961 fusion)] ?
Response line: 14.5

Prompt line: Fill in: exchange rate vs Pos peptide of CPMSRLRLA (here or on the partner: biotinylated heavy chain) [P46 9-mer peptide (TP53 (R213D) frameshift)] is ___
Response line: 14.5

Prompt line: Given the binder HVPKILSGK (here or on the partner: biotinylated heavy chain) [P58 9-mer peptide (AR (Q903H))] , what is its reported exchange rate vs Pos peptide?
Response line: 5.3

Prompt line: Given LLERNSFEV (here or on the partner: biotinylated heavy chain) [P73 9-mer peptide (TP53 (G266E))] , state its recorded exchange rate vs Pos peptide.
Response line: 2.6

Prompt line: Quick check: exchange rate vs Pos peptide of LMAQRLLLR (here or on the partner: biotinylated heavy chain) [P97 9-mer peptide (FOXRED2-TXN2 fusion)] ?
Response line: 2.7

Prompt line: I have this binder here, RVGNCKHLK (here or on the partner: biotinylated heavy chain) [P82 9-mer peptide (AR-V7 splice variant)] , and I need its recorded exchange rate vs Pos peptide.
Response line: 1.4
